Target: T1, Human OX40 (Sino Biological Inc) (human, UniProt P43489 29-216, limits assumed)
T1 construct: Bought soluble protein used as SPR analyte; also called huOX40
T1 sequence: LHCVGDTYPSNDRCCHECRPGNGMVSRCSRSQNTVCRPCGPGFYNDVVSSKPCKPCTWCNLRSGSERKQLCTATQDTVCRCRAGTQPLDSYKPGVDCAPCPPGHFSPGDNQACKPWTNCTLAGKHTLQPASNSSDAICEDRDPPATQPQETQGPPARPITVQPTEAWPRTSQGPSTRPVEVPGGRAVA
Experiment: SPR (Biacore), antibody captured via anti-human Fc, huOX40 analyte
measure: Kd

* 1A7.gr.6 (antibody, V domains shown, human Fc) VH: EVQLVQSGAEVKKPGASVKVSCKASGYTFTDSYMSWVRQAPGQGLEWIGDMYPDNGDSSYNQKFRERVTITVDTSTSTAYLELSSLRSEDTAVYYCVLAPRWYFSVWGQGTLVTVSS VL: DIQMTQSPSSLSASVGDRVTITCRASQDISNYLNWYQQKPGKTVKLLIYYTSRLRSGVPSRFSGSGSGKDYTLTISSLQPEDFATYFCQQGHTLPPTFGQGTKVEIK | 0.177 nM
* 3C8.gr.3 (antibody, V domains shown, human Fc) VH: EVQLVQSGAEVKKPGASVKVSCKASGYAFTNYLIEWVRQAPGQGLEWIGVINPGSGDTYYSEKFKGRVTLTADTSTSTAYLELSSLRSEDTAVYYCARDRLDYWGQGTLVTVSS VL: DIQMTQSPSSLSASVGDRVTITCHASQDISSYIVWYQQKPGKAPKLLIYHGTNLEDGVPSRFSGSGSGTDFTLTISSLQPEDFATYYCVHYAQFPYTFGQGTKVEIK | 3.94 nM
* 3C8.gr.6 (antibody, V domains shown, human Fc) VH: EVQLVQSGAEVKKPGASVKVSCKASGYAFTNYLIEWVRQAPGQGLEWIGVINPGSGDTYYSEKFKGRVTITADTSTSTAYLELSSLRSEDTAVYYCARDRLDYWGQGTLVTVSS VL: DIQMTQSPSSLSASVGDRVTITCHASQDISSYIVWYQQKPGKSFKGLIYHGTNLEDGVPSRFSGSGSGADYTLTISSLQPEDFATYYCVHYAQFPYTFGQGTKVEIK | 3.08 nM
* 3C8.gr.7 (antibody, V domains shown, human Fc) VH: EVQLVQSGAEVKKPGASVKVSCKASGYAFTNYLIEWVRQAPGQGLEWIGVINPGSGDTYYSEKFKGRVTLTADTSTSTAYLELSSLRSEDTAVYYCARDRLDYWGQGTLVTVSS VL: DIQMTQSPSSLSASVGDRVTITCHASQDISSYIVWYQQKPGKSFKGLIYHGTNLEDGVPSRFSGSGSGADYTLTISSLQPEDFATYYCVHYAQFPYTFGQGTKVEIK | 1.41 nM

Exercise: Please report the measured Kd for 1A7.gr.7′ (antibody, V domains shown, human Fc) VH: EVQLVQSGAEVKKPGASVKVSCKASGYTFTDSYMSWVRQAPGQGLEWIGDMYPDNGDSSYNQKFRERVTLTVDTSTSTAYLELSSLRSEDTAVYYCVLAPRWYFSVWGQGTLVTVSS VL: DIQMTQSPSSLSASVGDRVTITCRASQDISNYLNWYQQKPGKTVKLLIYYTSRLRSGVPSRFSGSGSGKDYTLTISSLQPEDFATYFCQQGHTLPPTFGQGTKVEIK
Key: 0.36 nM

Exercise: Annotate the binder 3C8.gr.10 (antibody, V domains shown, human Fc) VH: EVQLVQSGAEVKKPGASVKVSCKASGYAFTNYLIEWVRQAPGQGLEWIGVINPGSGDTYYSEKFKGRVTLTRDTSTSTAYLELSSLRSEDTAVYYCARDRLDYWGQGTLVTVSS VL: DIQMTQSPSSLSASVGDRVTITCHASQDISSYIVWYQQKPGKAFKLLIYHGTNLEDGVPSRFSGSGSGTDFTLTISSLQPEDFATYYCVHYAQFPYTFGQGTKVEIK with its measured Kd.
Key: 2.84 nM
